- Tgt: recombinant human A2A receptors (Homo sapiens)
- Sequence (P29274 whole entry): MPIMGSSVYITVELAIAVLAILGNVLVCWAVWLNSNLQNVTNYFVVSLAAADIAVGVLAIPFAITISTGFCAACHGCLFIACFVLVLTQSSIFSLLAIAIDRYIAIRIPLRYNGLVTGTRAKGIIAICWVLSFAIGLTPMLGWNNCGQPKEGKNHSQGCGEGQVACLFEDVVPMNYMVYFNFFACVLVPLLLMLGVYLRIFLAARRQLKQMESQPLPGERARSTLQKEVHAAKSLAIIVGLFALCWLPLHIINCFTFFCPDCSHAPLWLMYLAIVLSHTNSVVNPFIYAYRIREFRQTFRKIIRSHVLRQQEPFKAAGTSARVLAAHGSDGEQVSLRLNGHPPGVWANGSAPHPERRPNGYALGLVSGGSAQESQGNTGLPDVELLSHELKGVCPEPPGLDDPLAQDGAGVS
- Assay text: Radioligand competition binding to recombinant human A2A receptors in Sf9 cell membranes
- Experimental parameters: A2A ± SEM, Ki from competition binding, Sf9 cell membranes
Endpoint label: Ki (nM)
Return type: number; implicit unit nM.

INSERT INTO assay_data (compound, tgt, endpoint_label, measured_value) VALUES
  ('CCNC(=O)[C@H]1O[C@@H](n2cnc3c(N)nc(C#CC(O)(C4CCCCC4)C4CCCCC4)nc32)C(O)C1O (stereo in doubt) [JR-3139]', 'recombinant human A2A receptors (Homo sapiens)', 'Ki', 166),
  ('CCNC(=O)[C@H]1O[C@@H](n2cnc3c(N)nc(C#CC4(O)CCCC(C)C4)nc32)C(O)C1O (stereo partly drawn) [JR-3179]', 'recombinant human A2A receptors (Homo sapiens)', 'Ki', 0.4),
  ('CCNC(=O)[C@H]1O[C@@H](n2cnc3c(N)nc(C#CC4(O)CCCCC4C(C)(C)C)nc32)C(O)C1O (stereo in doubt) [JR-3227]', 'recombinant human A2A receptors (Homo sapiens)', 'Ki', 25.1),
  ('CCNC(=O)[C@H]1O[C@@H](n2cnc3c(N)nc(C#CCC4CCC(C)(C(=O)OC)CC4)nc32)C(O)C1O (single isomer, unassigned) [JR-3067B]', 'recombinant human A2A receptors (Homo sapiens)', 'Ki', 4);

Switching to the query record.
According to the records, this compound CCNC(=O)[C@H]1O[C@@H](n2cnc3c(N)nc(C#CCC4CCN(C(=O)OC(C)(C)C)CC4)nc32)C(O)C1O (stereo in doubt) [JR-3259] displays Ki of 0.9

----------
- Tgt: A3 AR (Homo sapiens, UniProt P0DMS8)
- Sequence (P0DMS8 whole entry): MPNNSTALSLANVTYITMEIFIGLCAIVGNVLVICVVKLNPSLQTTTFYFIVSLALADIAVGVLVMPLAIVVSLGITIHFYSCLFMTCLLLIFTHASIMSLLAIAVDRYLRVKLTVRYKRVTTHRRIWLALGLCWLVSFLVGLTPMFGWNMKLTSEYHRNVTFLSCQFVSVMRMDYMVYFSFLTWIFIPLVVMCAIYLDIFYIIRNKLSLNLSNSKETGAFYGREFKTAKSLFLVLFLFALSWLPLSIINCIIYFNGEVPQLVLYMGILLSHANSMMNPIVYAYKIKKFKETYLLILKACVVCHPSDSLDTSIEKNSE
- Assay text: Radioligand competition binding (125I-ABA) to human A3 AR in HEK 293 cell membranes
- Experimental parameters: selectivity ratio A3 over A2A
Is A3/A2A at least 30? Then 1.0. If not, 0.0.

Example results:
INSERT INTO assay_data (compound, cat) VALUES
  ('CCNC(=O)[C@H]1O[C@@H](n2cnc3c(N)nc(C#CC4(O)CCCCC4C)nc32)C(O)C1O (single isomer, unassigned) [JR-3177B]', 0.0),
  ('CCNC(=O)[C@H]1O[C@@H](n2cnc3c(N)nc(C#CC4(O)CCC(CC)CC4)nc32)C(O)C1O (stereo in doubt)', 0.0),
  ('CCNC(=O)[C@H]1O[C@@H](n2cnc3c(N)nc(C#CC[C@H]4CC[C@H](COC(=O)OC)CC4)nc32)C(O)C1O (stereo partly drawn)', 1.0);

As a next step, examine the compound that follows.
Assess whether reported A3/A2A for CCNC(=O)[C@H]1O[C@@H](n2cnc3c(N)nc(C#CC4(O)CCCCC4C)nc32)C(O)C1O (single isomer, unassigned) [JR-3181B] sits at 30 or higher. 1.0

----------
- Tgt: recombinant human A2A receptors (Homo sapiens)
- Assay text: Radioligand competition binding to recombinant human A2A receptors in Sf9 cell membranes
- Experimental parameters: A2A ± SEM, Ki from competition binding, Sf9 cell membranes
Endpoint label: Ki (nM)
Return type: number; implicit unit nM.

Recorded results for 4 compounds are shown here.
INSERT INTO assay_data (compound, endpoint_label, measured_value) VALUES
  ('CCNC(=O)[C@H]1O[C@@H](n2cnc3c(N)nc(C#CC4(O)CCCCC4C)nc32)C(O)C1O (single isomer, unassigned) [JR-3177B]', 'Ki', 0.7),
  ('CCNC(=O)[C@H]1O[C@@H](n2cnc3c(N)nc(C#CCC4CCC(C(=O)OCCNC(=O)OC(C)(C)C)CC4)nc32)C(O)C1O (stereo in doubt)', 'Ki', 1.6),
  ('CCNC(=O)[C@H]1O[C@@H](n2cnc3c(N)nc(C#CCC4CCC(CN(C)C)CC4)nc32)C(O)C1O (stereo in doubt)', 'Ki', 3.8),
  ('CCNC(=O)[C@H]1O[C@@H](n2cnc3c(N)nc(C#CC4(O)CCCCC4C)nc32)C(O)C1O (single isomer, unassigned) [JR-3177A]', 'Ki', 1.2);

According to the records, this compound CCNC(=O)[C@H]1O[C@@H](n2cnc3c(N)nc(C#CCC4CCC(C(N)=O)CC4)nc32)C(O)C1O (stereo in doubt) displays Ki of 1.8

According to the records, this compound CCNC(=O)[C@H]1O[C@@H](n2cnc3c(N)nc(C#CCC4CCC(C(C)O)CC4)nc32)C(O)C1O (stereo in doubt) displays Ki of 5.7

According to the records, this compound CCNC(=O)[C@H]1O[C@@H](n2cnc3c(N)nc(C#CCC4CCC(CO)CC4)nc32)C(O)C1O (stereo in doubt) displays Ki of 1.5

Cited source: patent US7737127B2
